For each record, write down the corresponding logP.
Assay: Partition coefficient, log P of the compound
Assay type: physicochemical
Details: octanol/water
Respond using a number only.

The reported value for CNc1ccc(/C=C/c2ccc(OCCOCCOCC[18F])nc2)cc1 in terms of logP is 2.41

Consider CNc1ccc(/C=C/c2ccc(OCCOCCOCC[18F])cc2)cc1 . Its measured logP is 2.41

###

Can you tell me pKi for the items I'm about to list?
Assay: Binding affinity to amyloid beta (1-42) aggregates
Lab note — pKi values are minus log10 of concentrations in M.

pKi in this record for CNc1ccc(/C=C/c2ccc(OCCOCCOCC[18F])nc2)cc1 : 8.54

# pKi of CNc1ccc(/C=C/c2ccc(OCCOCCOCC[18F])cc2)cc1 = 8.65

For record CN(C)c1ccc(-c2nc3ccc([125I])cc3s2)cc1 the listed pKi is 8.72

// sample CNc1ccc(-c2cn3c(n2)sc2cc(OC)ccc23)cc1 , its pKi was 8.46

For record CNc1ccc(-c2nc3ccc(O)cc3s2)cc1[18F] the listed pKi is 9.13

The reported pKi of the compound [11CH3]Nc1ccc(-c2nc3ccc(O)cc3s2)cn1 was 7.71

The compound identified as CN(C)c1ccc(-c2nc3ccc([125I])cc3o2)cc1 registered its pKi at 9.10
